Reference source for all entries: PubChem BioAssay (NCI)

- System: SK-OV-3 ovarian
- run.description: NCI tumour cell line growth inhibition, 48 h
property: TGI

Previously resolved entries follow.
# compound, property, result
rows = [
    ("C/C(=C\\c1c[nH]c2ccccc12)[N+](=O)[O-]", "TGI", "23.7 µM"),
    ("COc1ccc(NC(C)=O)cc1N1C(=O)/C(=C\\c2cc(OC)c(OC)c(OC)c2)S(=O)(=O)C1c1ccccc1 (stereo not given)", "TGI", "> 100 µM"),
    ("COc1ccc2c(c1)/C(=C\\c1cccc(/C=C3/C(=O)Nc4ccc(OC)cc43)n1)C(=O)N2", "TGI", "17.3 µM"),
    ("CN1CCN(Cc2ccc(Nc3ncc(Cl)c(Nc4ccccc4S(=O)(=O)N(C)C)n3)cc2)CC1", "TGI", "> 100 µM"),
]

Let us move to another entry and its TGI.
q: Endpoint output: TGI of COC(=O)C1=CC2OC13CC1CCC3(C2=O)C1(C)C (stereo not given) . Value?
a: 38.1 µM

* * *

- System: EKVX NSCLC
- run.description: NCI tumour cell line growth inhibition, 48 h
# TGI values compiled below

# molecule, TGI
measured = [
    ("Clc1ccc(CO/N=C(\\Cn2ccnc2)c2ccc(Cl)cc2Cl)c(Cl)c1", "2.83 µM"),
    ("O=C(Nc1ccc(Br)c(Cl)c1)c1cc(F)ccc1O", "10 µM"),
    ("Cc1cc(NCC2CC/C(=C\\C=C\\c3ccccc3)C2=O)no1 (stereo unspecified)", "> 100 µM"),
    ("COc1cc2c3c(c4cc(OC)c(OC)cc4c2cc1OC)[C@H](O)[C@@H]1CCCN1C3", "0.938 µM"),
    ("Nc1nccc(Nc2ccc(S(N)(=O)=O)cc2)n1", "> 100 µM"),
]

q: Endpoint output: TGI of CC(C)=CCC/C(C)=C/CC/C(=C/COP(=O)(OCc1ccc([N+](=O)[O-])o1)N(C)CCCCCl)C(C)(C)C (stereo unspecified) . Value?
a: 22.4 µM

q: Param item: CSc1ccc(-c2cc(-c3nc4ccccc4[nH]3)nc3[nH]c(-c4nc5ccccc5[nH]4)cc(=O)c23)cc1
a: > 100 µM

q: Param item: NC(=O)c1cc(C2OC(CO)C(O)C2O)nn1-c1ccc([N+](=O)[O-])cc1 (stereo unspecified)
a: > 100 µM

q: Param item: O=C1/C(=C/C(Cl)=C/c2ccccc2)SC(=S)N1CCc1ccc(O)cc1
a: 4.14 µM

q: Param item: O=C(O)CC1(C(=O)O)CCCCC1
a: > 100 µM

q: Param item: Cc1cc2nc3c(C#N)c(-c4ccccc4)cc(Nc4ccc(F)cc4)n3c2cc1C
a: 52.9 µM

q: Param item: CC(C)(O)[C@H]1[C@@H]2OC(=O)[C@H]1[C@]1(O)C[C@H]3OC34C(=O)O[C@H]2[C@@]41C (stereo partly specified) (tested in a mixture with another compound)
a: > 100 µM

q: Param item: COC(=O)[C@]12CSC[C@H]1C[C@H](c1ccc(N(C)C)cc1)N2
a: > 100 µM

q: Param item: COC(=O)C1=CC2OC1(C)C1(CC1)C2=O (stereo unspecified)
a: 29 µM

q: Param item: C/C(=C\c1ccn(-c2ccc(N)cc2)n1)[C@@H]1C[C@@H]2O[C@]2(C)CCC[C@H](C)[C@H](O)[C@@H](C)C(=O)C(C)(C)[C@@H](O)CC(=O)O1
a: > 50 µM

q: Param item: O=C(NCC#CCO)C(F)(F)F
a: > 100 µM

q: Param item: CC[C@H](C)C(=O)O[C@H]1CCC=C2C=C[C@H](C)C(CCC3C[C@@H](O)CC(=O)O3)[C@H]21 (stereo partly specified)
a: > 100 µM

q: Param item: CC(C)N1CCCOC(c2ccc([N+](=O)[O-])cc2)O1 (stereo unspecified)
a: > 100 µM

q: Param item: COc1ccc2c(c1)[n+]([O-])c(-c1nc3ccccc3s1)c(N)[n+]2[O-]
a: > 100 µM

q: Param item: O=C(NN1C(=O)c2ccccc2C1=O)c1ccccc1Nc1ccccc1C(=O)NN1C(=O)c2ccccc2C1=O
a: > 100 µM

* * *

- System: IGROV1 ovarian
- run.description: NCI tumour cell line growth inhibition, 48 h
# TGI values compiled below

Previously resolved entries follow.
# compound, property, result
records = [
    ("O=C1c2ccccc2C(=O)c2c(O)c(O)cc(O)c21", "TGI", "> 100 µM"),
    ("CCOn1cc(C2=C(c3c[nH]c4ccccc34)C(=O)NC2=O)c2ccccc21", "TGI", "> 61.6 µM"),
    ("COc1ccccc1CNCc1nc2ccccc2[nH]1", "TGI", "> 100 µM"),
]

q: Kindly state the measured TGI obtained for COc1ccc2c(c1)[n+]([O-])c(-c1nc3ccccc3s1)c(N)[n+]2[O-] with IGROV1 ovarian.
a: > 100 µM

q: Param item: CN(C)CCN1C(=O)c2ccccc2C1(O)c1ccc(Cl)cc1 (stereo not drawn)
a: > 100 µM

* * *

- Tested on: OVCAR-5 ovarian
- run.description: NCI tumour cell line growth inhibition, 48 h
# TGI values compiled below

# molecule, result
measured = [
    ("Nc1ccc(Oc2ccc(C3(c4ccc(Oc5ccc(N)c(O)c5)cc4)C4CC5C6CC7CC5C3C(C7)C6C4)cc2)cc1O", "5.76 µM"),
    ("Cc1cc(C)nc(SC2=C(Nc3cccc(Cl)c3)C(=O)N(Cc3ccccc3)C2=O)n1", "> 170 µM"),
]

q: Endpoint output: TGI of COc1ccc(-c2nc(-c3nc4cc(C)c(C)cc4[nH]3)cc3c2[nH]c2ccccc23)cc1 . Value?
a: > 100 µM

q: Param item: COc1cc(/C=C2\N=C(c3ccccc3)N(/N=C/c3cc4cc(C)ccc4nc3Cl)C2=O)cc(OC)c1OC
a: > 100 µM

q: Param item: O=C1CCSc2c(cnc3ccccc23)N1
a: > 100 µM

q: Param item: CCNc1nc(N2CC(=O)Nc3cc(OC)ccc32)c2ccccc2n1
a: > 100 µM

q: Param item: COc1cc2c(cc1OC)[C@@]1(C)C(=O)c3cc4c(cc3[C@H]1N(C)C2=O)OCO4
a: > 100 µM

q: Param item: CCCC(=O)NNc1[nH]c(-c2ccc(OC)cc2)cc1C(=O)OCC
a: 44.4 µM

q: Param item: Cc1ccc2[nH]c(=O)c(C(C#N)c3ccccc3)nc2c1 (stereo not given)
a: > 100 µM

q: Param item: O=c1[nH]c(=O)n(C2CC(O)C(CO)O2)c2nc3ccc4ccccc4c3nc12 (stereo not given)
a: > 100 µM

* * *

- Test system: SR leukemia
- run.description: NCI tumour cell line growth inhibition, 48 h
property: TGI

q: Kindly state the measured TGI obtained for COc1cccc2c1c1nc3cc(C)c(C)cc3nc1n2CCN(C)C with SR leukemia.
a: 8.7 µM

q: Param item: O=C(O)CC1(C(=O)O)CCCCC1
a: > 100 µM

q: Param item: ON(CCc1ccccn1)Cc1ccccc1
a: > 100 µM

q: Param item: CC1OC(O)CC(OC(=O)c2ccccc2)C1OC(=O)c1ccccc1 (stereo not drawn)
a: 37.1 µM

q: Param item: COc1ccc2c(c1)/C(=C\c1cccc(/C=C3/C(=O)Nc4ccc(OC)cc43)n1)C(=O)N2
a: 0.452 µM

q: Param item: COc1ccc(N2C(=O)/C(=C\c3cc(OC)c(OC)c(OC)c3)S(=O)(=O)C2c2ccccc2)cc1 (stereo not drawn)
a: > 100 µM

q: Param item: C=C(Cl)C(Br)(CBr)CCC(Br)C(C)(C)Br (stereo not drawn)
a: > 1 µM

q: Param item: O=C(NN1C(=O)c2ccccc2C1=O)c1ccccc1Nc1ccccc1C(=O)NN1C(=O)c2ccccc2C1=O
a: > 100 µM

q: Param item: Cc1ncc([N+](=O)[O-])n1CCNC(=O)CCn1ccnc1[N+](=O)[O-]
a: > 100 µM

q: Param item: COc1ccccc1NC(=O)C1=C(C)NC(C)=C(C(=O)Nc2ccccc2OC)C1c1ccccc1OC
a: > 100 µM

q: Param item: COC(=O)C1=CC2OC1(C)C1(CC1)C2=O (stereo not drawn)
a: 34.6 µM

q: Param item: COC(=O)C(=O)C(C(=O)C(=O)Nc1cc([N+](=O)[O-])ccc1[N+](=O)[O-])c1nc2ccc(C(=O)c3ccccc3)cc2[nH]c1=O (stereo not drawn)
a: 60.2 µM

q: Param item: C(/C=N/NC1=NCCCN1)=N\NC1=NCCCN1
a: > 100 µM

q: Param item: CO[C@H](C(=O)N[C@@H](CCCCNC(=O)OCc1ccccc1)C(=O)OC(C)(C)C)[C@@H]1Cc2cc3cc(OC4CC(OC5CC(O)C(O)C(C)O5)C(O)C(C)O4)c(C)c(O)c3c(O)c2C(=O)[C@H]1OC1CC(OC2CC(OC3CC(C)(O)C(O)C(C)O3)C(O)C(C)O2)C(O)C(C)O1 (stereo partly drawn)
a: > 10 µM

q: Param item: O=C1/C(=C/c2ccc(Cl)cc2)CN(C(=O)C(Cl)Cl)C/C1=C\c1ccc(Cl)cc1
a: > 40.1 µM

q: Param item: CCOC(=O)C1=C(C)N(NC(=O)c2ccccc2)C2(O)CCCC12C(=O)OCC (stereo not drawn)
a: > 100 µM

q: Param item: CO[C@H](c1ccccc1)[C@H](O)[C@](O)(c1ccccc1)P(=O)(OC)OC
a: > 100 µM

q: Param item: Nc1ccc(Oc2ccc(C3(c4ccc(Oc5ccc(N)c(O)c5)cc4)C4CC5C6CC7CC5C3C(C7)C6C4)cc2)cc1O
a: > 100 µM
